Below, each of the compounds is paired with its reported IC50 value.
- Target or system: nitric oxide synthase (Mus musculus, UniProt P29477)
- Sequence (P29477 1-1144): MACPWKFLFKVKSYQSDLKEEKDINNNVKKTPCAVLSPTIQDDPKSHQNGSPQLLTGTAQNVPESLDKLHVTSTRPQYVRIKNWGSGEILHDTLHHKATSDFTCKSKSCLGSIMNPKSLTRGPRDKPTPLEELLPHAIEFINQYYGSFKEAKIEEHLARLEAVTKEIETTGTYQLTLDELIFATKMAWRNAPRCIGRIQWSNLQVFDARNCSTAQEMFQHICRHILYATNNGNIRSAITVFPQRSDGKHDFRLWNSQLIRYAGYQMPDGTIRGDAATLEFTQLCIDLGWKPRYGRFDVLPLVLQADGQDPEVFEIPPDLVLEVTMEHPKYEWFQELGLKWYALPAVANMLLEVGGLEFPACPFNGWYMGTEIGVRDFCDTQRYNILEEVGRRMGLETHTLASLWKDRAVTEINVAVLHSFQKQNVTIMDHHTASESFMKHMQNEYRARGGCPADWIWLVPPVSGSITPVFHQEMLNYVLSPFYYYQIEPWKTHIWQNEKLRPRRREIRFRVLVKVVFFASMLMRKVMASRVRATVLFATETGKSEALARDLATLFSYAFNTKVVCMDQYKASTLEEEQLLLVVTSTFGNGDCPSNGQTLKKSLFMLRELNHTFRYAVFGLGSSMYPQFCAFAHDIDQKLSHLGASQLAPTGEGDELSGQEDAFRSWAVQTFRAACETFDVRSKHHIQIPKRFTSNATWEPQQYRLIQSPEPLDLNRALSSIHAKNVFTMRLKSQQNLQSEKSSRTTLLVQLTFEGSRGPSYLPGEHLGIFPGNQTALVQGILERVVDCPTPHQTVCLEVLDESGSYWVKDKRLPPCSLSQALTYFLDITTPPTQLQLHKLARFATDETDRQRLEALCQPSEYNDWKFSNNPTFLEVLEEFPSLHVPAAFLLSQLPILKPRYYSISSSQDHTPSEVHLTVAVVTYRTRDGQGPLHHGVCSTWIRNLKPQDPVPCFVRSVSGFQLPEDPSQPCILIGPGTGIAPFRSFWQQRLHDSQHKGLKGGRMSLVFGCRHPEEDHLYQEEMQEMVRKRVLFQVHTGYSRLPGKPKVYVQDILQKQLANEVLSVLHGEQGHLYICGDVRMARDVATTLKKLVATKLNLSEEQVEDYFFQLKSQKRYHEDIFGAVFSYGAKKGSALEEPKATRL
- Experiment: NOS inhibition assay: nitric oxide (nitrite, Greiss reagent) production from PAM 212 keratinocytes stimulated with gamma interferon
- Type: cell-based
- Condition description: 100 U/ml gamma interferon, 72 hours, nitrite in medium

{"Compound": "Nn1c(-c2cccs2)n[nH]c1=S [III (R = 2-thienyl)]", "IC50": "77 µM"}
{"Compound": "Oc1cccc(C=Nn2c(S)nnc2-c2cccnc2)c1O", "IC50": "29 µM"}
{"Compound": "C1=Nn2c(Cc3ccccc3)nnc2SC(c2ccccc2)=C1 [IV (R = benzyl, R′ = H)]", "IC50": "52 µM"}
{"Compound": "COc1ccccc1C=CC=Nn1c(S)nnc1-c1cccs1", "IC50": "> 100 µM"}
{"Compound": "Fc1ccc(-c2nnc3n2N=C(c2ccccc2)CS3)cc1 [VIII (R = 4-F—C6H4—, R′ = phenyl)]", "IC50": "> 100 µM"}
{"Compound": "Brc1ccccc1-c1nnc2n1N=CC=C(c1ccccc1)S2 [IV (R = 2-Br—C6H4—, R′ = H)]", "IC50": "87 µM"}
{"Compound": "COC(=O)CCSc1nnc(C)n1N [VI (R = methyl, R′ = —CH2—CH2—COOMe)]", "IC50": "170 µM"}
{"Compound": "O=[N+]([O-])c1ccccc1C=CC=Nn1c(S)nnc1-c1cccs1", "IC50": "12 µM"}
{"Compound": "Sc1nnc(-c2cccs2)n1N=CC=Cc1ccccc1", "IC50": "35 µM"}
